Source of measurements: patent US20050074758A1

Target: prokineticin receptor(s) of guinea pig ileum (ileal membranes; ileal longitudinal smooth muscle) (guinea pig)
Test: displacement of 125I-prokineticin 1 (20 pM) from guinea pig ileal membranes, low-affinity site
pKi: −log10 of the molar value.
measurement.type: pKi

{"binder": "recombinant refolded human prokineticin 2 (unlabeled), 6×His-tagged (ligand) AVITGACDKDSQCGGGMCCAVSIWVKSIRICTPMGKLGDSCHPLTRKVPFFGRRMHHTCPCLPGLACLRTSFNRFICLAQKHHHHHH", "reading": 8.91}
